The compounds listed here are annotated with their IC (TGI).
Test system: UACC-257 (Melanoma)
test.description: NCI-60 screen (SRB, 48 h)
measurement.conditions: Homo sapiens, UACC-257, 48 h, read-out: TGI
State the value, then name its unit.

Check out these entries, answers already filled in.
CC1(C)CC[C@]23CC[C@]4(C)[C@H](CC[C@@H]5[C@@]6(C)CCCNC(C)(C)[C@@H]6CC[C@]54C)[C@H]2[C@H]1OC3 [Compound 7, Azepanoallobetulin]	3.89 µM
CC(C)=C1CCC=C2CC[C@]3(C)[C@H](CC[C@@H]4[C@@]5(C)CCCNC(C)(C)[C@@H]5CC[C@]43C)[C@H]21 [Compound 9]	3.63 µM
C[C@H]1[C@H](C)CC[C@]2(C(=O)Nc3ccc4ncccc4c3)CC[C@]3(C)C(=CC[C@@H]4[C@@]5(C)CCCNC(C)(C)[C@@H]5CC[C@]43C)[C@H]12 [Compound 14]	3.54 µM
C=C(C)[C@@H]1CC[C@]2(COS(=O)(=O)c3ccc(C)cc3)CC[C@]3(C)[C@@H](CC[C@@H]4[C@@]5(C)CCCNC(C)(C)[C@@H]5CC[C@]43C)[C@@H]12 [Compound 12]	3.65 µM

API: the following record is the query input.
Q) Give the reported IC (TGI) for CC1(C)NCCC[C@]2(C)[C@H]3C=CC4=C5C[C@@](C)(CO)CC[C@]5(C)CC[C@@]4(C)[C@]3(C)CC[C@@H]12 [Compound 6, azepano-glycyrrhetol-diene] (system: UACC-257 (Melanoma)).
A) 17 µM
